# Tested on: S. pyogenes ATCC 19615
# ASSAY PROTOCOL: MIC/MBC broth microdilution, S. pyogenes
# Type: cell-based, Streptococcus pyogenes
# CONDITION DETAILS: S. pyogenes, water additive EtOH
Non-standard residues stand in square brackets, D forms with d. Residues, ends and D or L forms follow the SMILES beside them. *: point of attachment. NHPhenethyl = c1ccc(CCN*)cc1; β3hV = CC(C)[C@H](N)CC(=O)O; Cbz = O=C(OCc1ccccc1)*
Each record here notes measured MBC.

# COMPOUND, SYSTEM UNDER TEST, MBC
records = [
    ("CC(C)[C@@H](CNC(=O)C(=Cc1ccccc1)c1ccccc1)NC(=O)[C@H](CCCNC(=N)N)NC(=O)[C@H](CCCCNC(=N)N)NC(=O)OCc1ccccc1 [Compound A-192]", "S. pyogenes ATCC 19615", "8 µg/mL"),
    ("CC(C)[C@H](NC(=O)[C@H](Cc1c[nH]cn1)NC(=O)[C@H](CCCNC(=N)N)NC(=O)OCc1ccccc1)C(=O)NCCc1ccccc1 [Compound A-219] (HELM PEPTIDE1{[O=C(OCc1ccccc1)[*:2]].R.H.V.[c1ccc(CCN[*:1])cc1]}$$$$V2.0)", "S. pyogenes ATCC 19615", "512 µg/mL"),
    ("CC(C)[C@@H](CNC(=O)/C=C/c1ccccc1)NC(=O)[C@H](Cc1c[nH]cn1)NC(=O)[C@H](CCCCN)NC(=O)OCc1ccccc1 [Compound A-174]", "S. pyogenes ATCC 19615", "256 µg/mL"),
    ("CC(C)C[C@H](NC(=O)[C@H](CCCCNC(=N)N)NC(=O)OCc1ccccc1)C(=O)N[C@H](CNC(=O)/C=C/c1ccccc1)C(C)C [Compound A-134]", "S. pyogenes ATCC 19615", "32 µg/mL"),
    ("CC(C)C[C@H](NC(=O)[C@H](CCCNC(=N)N)NC(=O)OCc1ccccc1)C(=O)N[C@H](CC(=O)NCCc1ccccc1)C(C)C [Compound A-152] (Cbz-Arg-Leu-[β3hV]-NHPhenethyl)", "S. pyogenes ATCC 19615", "126 µg/mL"),
    ("CC(C)[C@H](NC(=O)[C@H](CCCNC(=N)N)NC(=O)[C@H](CCCNC(=N)N)NC(=O)OCc1ccccc1)C(=O)NCCc1ccccc1 [Compound A-221] (HELM PEPTIDE1{[O=C(OCc1ccccc1)[*:2]].R.R.V.[c1ccc(CCN[*:1])cc1]}$$$$V2.0)", "S. pyogenes ATCC 19615", "256 µg/mL"),
    ("CC(C)[C@@H](CNC(=O)C(=Cc1ccccc1)c1ccccc1)NC(=O)[C@H](CCCNC(=N)N)NC(=O)[C@H](CCCCN)NC(=O)OCc1ccccc1 [Compound A-191]", "S. pyogenes ATCC 19615", "8 µg/mL"),
    ("CC(C)[C@H](NC(=O)[C@H](Cc1c[nH]cn1)NC(=O)[C@H](CCCCN)NC(=O)OCc1ccccc1)C(=O)NCCc1ccccc1 [Compound A-220] (HELM PEPTIDE1{[O=C(OCc1ccccc1)[*:2]].K.H.V.[c1ccc(CCN[*:1])cc1]}$$$$V2.0)", "S. pyogenes ATCC 19615", "512 µg/mL"),
]
